B1: Protein S100-G, residues 1 to 79; numbered along this chain, P02633 (parent)
chain: MSAKKSPEELKGIFEKYAAKEGDPNQLSKEELKLLLQTEFPSLLKGPSTLDELFEELDKNGDGEVSFEEFQVLVKKISQ

# Variants of: B1
# ASSAY_NAME: abundance fitness (aPCA) (normalised: wild type 0, dead -1); higher = more abundant; growth selection in yeast, the domain comes from the species named
# MEASUREMENT_PARAMETERS: Bos taurus
Please note: 1 (yes) applies when abundance fitness is -0.04 or greater, and 0 (no) applies otherwise.

Query :: Has `G63K` a recorded abundance fitness greater than or equal to -0.04?
Result :: 1 (yes)

Query :: Another: `E30M`
Result :: 1 (yes)

Query :: How about this variant: `E52H`
Result :: 1 (yes)

Query :: Moving on to `S28P`
Result :: 1 (yes)

Query :: Same read-out for `E69T` ?
Result :: 1 (yes)

Query :: What about `A19I` ?
Result :: 1 (yes)

Query :: Ok, now `D23T`
Result :: 1 (yes)

Query :: Can you handle `E8C` next?
Result :: 0 (no)

Query :: And `Q37P` ?
Result :: 0 (no)

Query :: Similarly, `L53Y` ?
Result :: 1 (yes)

Query :: Try `E9Q` next.
Result :: 1 (yes)

Query :: Try the variant `P24R`
Result :: 1 (yes)

Query :: Lookup `K76P`
Result :: 0 (no)

Query :: Next record, please: `F70N`
Result :: 0 (no)

Query :: Now the variant `L44W`
Result :: 1 (yes)

Query :: Let us now turn to `Q79M`
Result :: 1 (yes)

Query :: Can you handle `I13V` next?
Result :: 0 (no)

Query :: Same thing, different variant: `E64T`
Result :: 1 (yes)

Query :: Cool, now `L43D`
Result :: 0 (no)

Query :: Please do the same for `V65F` as well.
Result :: 1 (yes)

Query :: Would you mind doing `A18F` as well?
Result :: 0 (no)

Query :: Next up: `E39P`
Result :: 0 (no)
